molecular target: T1, Smad7 PY peptide Ac-ELESPPPPYSRYPMD-NH2 (203-217) (human); experiment: ITC
T1 peptide: Ac-ELESPPPPYSRYPMD-NH2
So I've got a bunch of binders here, and I need their fold reduction of affinity against the wild-type WW1-WW2 pair values.
Field: numeric (fold). Do not append units.

Recorded fold reduction of affinity against the wild-type WW1-WW2 pair of Smurf1 WW1-WW2 pair Gln247 and Gln249 to Glu (domain or fragment) SPELPEGYEQRTTVEGEVYFLHTQTGVSTWHDPRIPRDLNSVNCDELGPLPPGWEVRSTVSGRIYFVDHNNRTTQFTDPRLH , please.
3

Next binder up: Smurf1 WW1-WW2 pair Arg243Glu (domain or fragment) SPELPEGYEQETTVQGQVYFLHTQTGVSTWHDPRIPRDLNSVNCDELGPLPPGWEVRSTVSGRIYFVDHNNRTTQFTDPRLH
10

Next binder up: Smurf1 WW1-WW2 pair Gln249Glu (domain or fragment) SPELPEGYEQRTTVQGEVYFLHTQTGVSTWHDPRIPRDLNSVNCDELGPLPPGWEVRSTVSGRIYFVDHNNRTTQFTDPRLH
3

Next binder up: Smurf1 WW1-WW2 pair Arg243Ala (domain or fragment) SPELPEGYEQATTVQGQVYFLHTQTGVSTWHDPRIPRDLNSVNCDELGPLPPGWEVRSTVSGRIYFVDHNNRTTQFTDPRLH
3
